Test system: AncSZ
Test: phosphorylation enrichment, bacterial display (enrichment ratio); higher = better substrate or ligand; peptides without Tyr show the background
readout label: phosphorylation enrichment
Answers are plain numbers.

Here's what some known entries look like.
{"sequence chain": "AAFNKYDQERF [CDC73_Y293_R292K_YF]", "experimental target": "AncSZ", "phosphorylation enrichment": 0.692}
{"sequence chain": "GPKSTYISSAA [GOLGA5_Y62]", "experimental target": "AncSZ", "phosphorylation enrichment": 0.731}
{"sequence chain": "AEMTGYVVTRW [MAPK13_Y182]", "experimental target": "AncSZ", "phosphorylation enrichment": 1.17}

For every item below, please supply its phosphorylation enrichment.
1. ERNARYRTPKI [PTK2B_Y699]
2. PIPAAYNRYDQ [CDC73_Y290]

OUT:
[0.562, 0.71]

----------
System: AncSZ
Assay: phosphorylation enrichment, bacterial display (enrichment ratio); higher = better substrate or ligand; peptides without Tyr show the background
readout label: phosphorylation enrichment
One number for each entry.

For every item below, please supply its phosphorylation enrichment.
1. YIGVTYKNKED [PDGFRA_Y993_E996K]
2. SLDLSYYTTSS [EMD_Y181_P183T]
3. VPLATYMRIYK [RPL21_Y30]

OUT:
1: 0.896; 2: 0.921; 3: 0.887

----------
Molecular target: MERTK (UniProt Q12866)
Sequence (Q12866 whole entry, looked up): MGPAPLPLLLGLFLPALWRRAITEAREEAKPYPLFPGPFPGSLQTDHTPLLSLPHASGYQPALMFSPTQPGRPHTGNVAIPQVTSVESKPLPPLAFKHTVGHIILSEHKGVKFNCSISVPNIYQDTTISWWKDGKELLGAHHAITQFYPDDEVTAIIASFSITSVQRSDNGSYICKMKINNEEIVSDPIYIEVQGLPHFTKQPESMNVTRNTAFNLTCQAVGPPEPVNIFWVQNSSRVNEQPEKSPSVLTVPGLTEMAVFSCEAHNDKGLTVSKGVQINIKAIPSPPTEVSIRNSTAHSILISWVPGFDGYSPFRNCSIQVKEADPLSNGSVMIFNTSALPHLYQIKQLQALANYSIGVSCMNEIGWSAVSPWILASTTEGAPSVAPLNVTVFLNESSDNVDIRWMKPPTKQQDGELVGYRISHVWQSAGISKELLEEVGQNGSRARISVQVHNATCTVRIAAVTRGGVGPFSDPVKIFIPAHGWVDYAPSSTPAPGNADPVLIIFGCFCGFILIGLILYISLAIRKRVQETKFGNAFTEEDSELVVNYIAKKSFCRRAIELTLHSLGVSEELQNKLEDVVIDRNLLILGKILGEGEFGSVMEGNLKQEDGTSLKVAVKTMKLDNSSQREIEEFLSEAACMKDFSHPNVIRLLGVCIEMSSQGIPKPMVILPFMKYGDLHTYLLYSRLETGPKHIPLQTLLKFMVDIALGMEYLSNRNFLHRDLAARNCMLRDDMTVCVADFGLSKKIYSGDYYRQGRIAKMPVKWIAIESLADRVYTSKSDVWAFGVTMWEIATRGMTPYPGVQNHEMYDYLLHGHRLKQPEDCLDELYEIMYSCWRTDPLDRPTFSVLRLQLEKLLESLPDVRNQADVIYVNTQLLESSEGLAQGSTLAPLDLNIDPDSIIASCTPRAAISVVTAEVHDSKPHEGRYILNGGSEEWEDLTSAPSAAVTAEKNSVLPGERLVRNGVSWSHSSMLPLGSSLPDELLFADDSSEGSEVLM
Assay: phosphorylation enrichment, bacterial display (enrichment ratio); higher = better substrate or ligand; peptides without Tyr show the background
Provide the recorded phosphorylation enrichment for the entries that follow.
Numbers only.

Here's what some known entries look like.
{"sequence chain": "GGYTCCCDGKK [PROS1_Y266_Y266C]", "experimental target": "MERTK (UniProt Q12866)", "phosphorylation enrichment": 0.436}
{"sequence chain": "LLKANYELLNA [POLR3A_Y714_K713N]", "experimental target": "MERTK (UniProt Q12866)", "phosphorylation enrichment": 0.976}
{"sequence chain": "PSELFYSKISP [SMG1_Y2254_G2258S_YF]", "experimental target": "MERTK (UniProt Q12866)", "phosphorylation enrichment": 13.6}
{"sequence chain": "VPLATYMRIYK [RPL21_Y30]", "experimental target": "MERTK (UniProt Q12866)", "phosphorylation enrichment": 0.412}
{"sequence chain": "VQVAFYTMMMN [SPATA17_Y84_YF]", "experimental target": "MERTK (UniProt Q12866)", "phosphorylation enrichment": 3.02}

For every item below, please supply its phosphorylation enrichment.
1. CTLTHYKSAVK [ASNS_Y555_R550C]
2. HFGCVYRGTLL [MET_Y1093_H1094R]
3. QNKEDYDGLKE [GSTO1_Y139_A140D]
4. TLNFCYQQVKS [PTK2_Y148_F147C]
5. ADLTEYLSTHF [UQCRC1_Y219_YF]
6. LAVPLYKNGVK [CPS1_Y1069]
7. LPHVIYCRLWR [SMAD2_Y128]
8. KKFVPYYDLFM [IPO5_Y530_E525K]

OUT:
1: 0.428; 2: 0.573; 3: 0.666; 4: 0.399; 5: 0.571; 6: 1.42; 7: 0.871; 8: 6.5

For every item below, please supply its phosphorylation enrichment.
1. DVMDFYKTLRG [NR3C1_Y30]
2. TVDASYCGGRG [ANTXR2_Y380_Y381C]
3. KDFTKYVAYIE [KDM4B_Y31_N29T]
4. KWELRYMHSRV [ABCD1_Y281_G277W]
5. GGYTCYCDGKK [PROS1_Y266]

OUT:
1: 0.394; 2: 0.452; 3: 0.465; 4: 0.369; 5: 0.439

For every item below, please supply its phosphorylation enrichment.
1. HCFAAYFQQGD [GPI_Y351_R347C]
2. ETRWKYHFEVV [GCNT3_Y267]
3. FLAVGYHMPHI [IDS_Y225_K227M]
4. LMIKEYLTKEL [BAG3_Y457_E455K]
5. ETKKQYNSFTY [TMED3_Y85_D86N]
6. KKFPDYIQIAM [SGMS2_Y59_YF]

OUT:
1. 1.03
2. 0.418
3. 0.313
4. 0.411
5. 0.463
6. 0.461

----------
Biological target: Grb2 SH2 (UniProt P62993)
Sequence (P62993 whole entry, looked up): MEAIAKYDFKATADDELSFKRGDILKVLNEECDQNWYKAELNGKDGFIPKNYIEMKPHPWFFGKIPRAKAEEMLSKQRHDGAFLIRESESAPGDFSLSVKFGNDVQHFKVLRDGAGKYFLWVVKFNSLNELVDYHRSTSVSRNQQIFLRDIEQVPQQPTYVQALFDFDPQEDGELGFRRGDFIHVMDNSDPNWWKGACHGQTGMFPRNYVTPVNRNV
Assay: SH2 binding enrichment of the phosphorylated peptide, bacterial display (enrichment ratio); higher = better substrate or ligand; peptides without Tyr show the background
Entry flag: MET if SH2 binding enrichment reaches 0.8; NOT MET if it does not.

{"sequence chain": "PSPMPYASCQM [FOXL2_Y215]", "class assignment": "NOT MET"}
{"sequence chain": "SVVMPYEPPEV [TP53_Y220_V218M]", "class assignment": "MET"}
{"sequence chain": "DLAAQYTTVGH [SGSH_Y240_R245H]", "class assignment": "MET"}

From here, focus on the item given below.
IN: Textbook exercise: given the entry CTSIHYNYMCN [TP53_Y234_T231S] , state whether its SH2 binding enrichment is greater than or equal to 0.8.
OUT: MET

----------
Molecular target: FGFR1 (UniProt P11362)
Sequence (P11362 whole entry, looked up): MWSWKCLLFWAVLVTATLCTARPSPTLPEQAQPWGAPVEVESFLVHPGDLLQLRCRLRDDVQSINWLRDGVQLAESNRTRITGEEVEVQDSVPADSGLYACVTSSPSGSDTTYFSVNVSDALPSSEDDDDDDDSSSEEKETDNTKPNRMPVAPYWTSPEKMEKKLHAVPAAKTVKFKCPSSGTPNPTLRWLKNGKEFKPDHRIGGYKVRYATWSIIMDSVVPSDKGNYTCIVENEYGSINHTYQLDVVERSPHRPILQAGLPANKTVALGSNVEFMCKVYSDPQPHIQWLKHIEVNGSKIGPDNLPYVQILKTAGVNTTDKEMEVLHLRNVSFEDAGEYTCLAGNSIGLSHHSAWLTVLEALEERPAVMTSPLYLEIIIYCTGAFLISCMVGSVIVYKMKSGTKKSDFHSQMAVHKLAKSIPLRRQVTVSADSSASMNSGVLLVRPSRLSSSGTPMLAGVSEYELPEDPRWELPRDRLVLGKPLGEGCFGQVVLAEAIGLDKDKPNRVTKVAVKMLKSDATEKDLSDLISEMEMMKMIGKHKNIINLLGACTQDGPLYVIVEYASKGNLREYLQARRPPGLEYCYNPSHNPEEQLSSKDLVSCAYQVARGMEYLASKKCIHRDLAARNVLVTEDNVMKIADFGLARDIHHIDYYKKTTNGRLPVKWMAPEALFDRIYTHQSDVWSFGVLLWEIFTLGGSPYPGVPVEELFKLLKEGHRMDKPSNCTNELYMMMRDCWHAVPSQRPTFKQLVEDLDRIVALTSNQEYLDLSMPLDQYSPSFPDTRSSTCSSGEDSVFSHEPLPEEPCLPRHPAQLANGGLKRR
Test: phosphorylation enrichment, bacterial display (enrichment ratio); higher = better substrate or ligand; peptides without Tyr show the background
readout label: phosphorylation enrichment
One number for each entry.

{"sequence chain": "TLQWMYGCDVG [HLA-B_Y123_S121W]", "experimental value": 0.396}

For every item below, please supply its phosphorylation enrichment.
1. NLNGKYYKPRA [ANGPTL3_Y417_N418Y]
2. RIVTTYIRERE [DNM2_Y463]

OUT:
[0.408, 0.616]

----------
Biological target: EPHB2 (UniProt P29323)
Sequence (P29323 whole entry, looked up): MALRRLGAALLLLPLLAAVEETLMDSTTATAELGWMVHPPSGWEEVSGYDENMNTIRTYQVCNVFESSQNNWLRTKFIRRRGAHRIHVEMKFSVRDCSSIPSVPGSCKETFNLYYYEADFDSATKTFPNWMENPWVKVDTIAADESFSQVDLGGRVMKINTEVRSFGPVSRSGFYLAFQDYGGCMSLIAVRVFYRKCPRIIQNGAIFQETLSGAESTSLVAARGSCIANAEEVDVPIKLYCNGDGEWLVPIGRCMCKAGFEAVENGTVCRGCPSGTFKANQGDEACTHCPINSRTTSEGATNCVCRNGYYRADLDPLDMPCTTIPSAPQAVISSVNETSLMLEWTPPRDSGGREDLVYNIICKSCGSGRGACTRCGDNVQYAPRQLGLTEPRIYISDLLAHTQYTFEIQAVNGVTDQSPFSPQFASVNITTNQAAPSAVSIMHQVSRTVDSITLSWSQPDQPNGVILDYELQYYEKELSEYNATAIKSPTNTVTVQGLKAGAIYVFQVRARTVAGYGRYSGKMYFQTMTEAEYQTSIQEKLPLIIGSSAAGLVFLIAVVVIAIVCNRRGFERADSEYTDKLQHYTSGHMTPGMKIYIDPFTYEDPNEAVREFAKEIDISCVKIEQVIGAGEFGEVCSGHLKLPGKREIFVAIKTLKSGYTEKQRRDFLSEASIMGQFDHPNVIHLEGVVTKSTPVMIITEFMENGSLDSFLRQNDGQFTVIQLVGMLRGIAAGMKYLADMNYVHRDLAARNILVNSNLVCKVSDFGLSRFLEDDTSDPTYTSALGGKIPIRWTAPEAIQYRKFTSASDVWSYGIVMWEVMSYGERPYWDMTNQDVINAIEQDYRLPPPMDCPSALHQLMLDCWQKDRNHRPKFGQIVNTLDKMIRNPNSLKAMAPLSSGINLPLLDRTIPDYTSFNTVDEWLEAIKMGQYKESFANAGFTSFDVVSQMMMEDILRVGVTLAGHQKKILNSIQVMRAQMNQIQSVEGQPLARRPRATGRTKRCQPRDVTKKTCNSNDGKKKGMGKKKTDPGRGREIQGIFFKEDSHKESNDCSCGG
Experiment: phosphorylation enrichment, bacterial display (enrichment ratio); higher = better substrate or ligand; peptides without Tyr show the background
readout label: phosphorylation enrichment
One number for each entry.

Here's what some known entries look like.
{"sequence chain": "ALRHYYKLNII [ETV6_Y402]", "experimental target": "EPHB2 (UniProt P29323)", "phosphorylation enrichment": 0.533}
{"sequence chain": "RAKLFYQEVPA [METTL11B_Y76]", "experimental target": "EPHB2 (UniProt P29323)", "phosphorylation enrichment": 1.9}
{"sequence chain": "TIMTNYNPNFC [ALK_Y1092_D1091N_YF]", "experimental target": "EPHB2 (UniProt P29323)", "phosphorylation enrichment": 0.784}
{"sequence chain": "VLAHKYHGGGG [HBB_Y146_A141V]", "experimental target": "EPHB2 (UniProt P29323)", "phosphorylation enrichment": 0.362}
{"sequence chain": "ENELTYYCCKK [CD59_Y86]", "experimental target": "EPHB2 (UniProt P29323)", "phosphorylation enrichment": 0.97}

For every item below, please supply its phosphorylation enrichment.
1. AAFNKYDQERF [CDC73_Y293_R292K_YF]
2. RESYKYLPSSL [CXXC1_Y218_F219L]
3. QKMFDYLKEKK [RYR2_Y3780_L3778F]
4. ITKQEYDEAGP [ACTA1_Y364]

OUT:
1. 0.483
2. 0.616
3. 0.438
4. 0.488

----------
Target: EPHB2 (UniProt P29323)
Test: phosphorylation enrichment, bacterial display (enrichment ratio); higher = better substrate or ligand; peptides without Tyr show the background
Provide the recorded phosphorylation enrichment for the entries that follow.
Answers are plain numbers.

{"sequence chain": "VAMELYVFRGV [GAN_Y471_G474R]", "experimental value": 0.841}

For every item below, please supply its phosphorylation enrichment.
1. RFLERYIYNRE [HLA-DPB1_Y57]
2. RHIEKYVDQGK [IRAK3_Y61]
3. KGERGYPGTPG [COL4A1_Y348]
4. GYCSWYRGWAP [TIMP3_Y195]

OUT:
1. 0.683
2. 0.318
3. 0.372
4. 0.712

For every item below, please supply its phosphorylation enrichment.
1. VIECSYTSADG [DHCR7_Y382]
2. TLSGTYQFIIA [FOXL2_Y81_I80T_YF]
3. VATRWYRSLEL [CDKL5_Y177_P180L]

OUT:
[0.538, 0.924, 0.368]

IN: Look up phosphorylation enrichment: RASGIYFVPKG [APBB1IP_Y340_YF]
OUT: 2.37

----------
Molecular target: c-Src SH2
Experiment: SH2 binding enrichment of the phosphorylated peptide, bacterial display (enrichment ratio); higher = better substrate or ligand; peptides without Tyr show the background
Provide the recorded SH2 binding enrichment for the entries that follow.
Answers are plain numbers.

Here's what some known entries look like.
{"sequence chain": "EPSVDCCVVKI [CAD_Y735_Y735C]", "experimental target": "c-Src SH2", "SH2 binding enrichment": 0.494}
{"sequence chain": "FRQLQYCPSVE [CTNND2_Y508_YF]", "experimental target": "c-Src SH2", "SH2 binding enrichment": 0.489}

Please find the next sequence below.
IN: Look up SH2 binding enrichment: VREIRCQGGNR [VWF_Y1570_Y1570C]
OUT: 0.477

Cited source for all entries: the supplement of paper PMC10065799
